Target: Streptokinase A (Streptococcus pyogenes serotype M1, UniProt P10520)
Sequence (P10520 whole entry): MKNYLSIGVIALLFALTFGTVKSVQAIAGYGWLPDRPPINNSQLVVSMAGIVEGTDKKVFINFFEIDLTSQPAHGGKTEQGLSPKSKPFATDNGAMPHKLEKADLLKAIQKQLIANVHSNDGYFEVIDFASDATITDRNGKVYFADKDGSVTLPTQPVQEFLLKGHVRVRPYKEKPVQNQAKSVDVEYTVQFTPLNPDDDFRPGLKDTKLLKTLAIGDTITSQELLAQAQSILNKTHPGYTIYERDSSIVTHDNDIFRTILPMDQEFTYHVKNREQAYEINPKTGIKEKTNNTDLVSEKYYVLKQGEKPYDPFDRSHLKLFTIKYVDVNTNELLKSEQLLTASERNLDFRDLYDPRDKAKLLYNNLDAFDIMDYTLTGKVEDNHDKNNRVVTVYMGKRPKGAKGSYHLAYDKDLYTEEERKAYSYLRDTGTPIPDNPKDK
Experiment: S. pyogenes streptokinase expression inhibitors, potency, dose response, plasminogen activation absorbance, OD405 (AID 1914);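 also: secreted streptokinase activity via plasminogen activation per viability signal from cell pellet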
Assay type: functional, Streptococcus pyogenes M1 GAS
Where a name gives a salt, the structure may show the parent alone. The source made the active and inactive calls. Rule as the data show it: actives have a measured EC50 and inactives only a lower limit.
REPORTED PROPERTY: EC50

O=C(c1cccs1)N1CCC(c2nc(O)c3nnn(Cc4ccccc4Cl)c3n2)CC1 = > 150 µM (not active)
O=C(CCc1ccccc1)Nc1nnc(-c2ccc3c(c2)CCCC3)o1 = > 150 µM (not active)
C=C1S/C(=N/c2ccccc2Cl)N(C(=O)c2sc3ccccc3c2Cl)C12CCCCC2 = 19.8 µM (active)
CC(=O)[C@]1(O)Cc2c(O)c3c(c(O)c2[C@@H](O[C@H]2C[C@H](N)[C@H](O)[C@H](C)O2)C1)C(=O)c1ccccc1C3=O [IDARUBICIN HYDROCHLORIDE] = > 150 µM (not active)
O=C(NC(=S)Nc1ccccc1N1CCCCC1)c1ccc(F)cc1Cl = 5.06 µM (active)
Clc1cccc(Nc2ncnc3c2cnn3-c2ccccc2)c1 = > 150 µM (not active)
Cc1coc2c1C(=O)C(=O)c1c-2ccc2c(C)cccc12 = > 150 µM (not active)
CC(C)CN(Cc1cc(=O)oc2cc3c(cc12)CCCC3)CC(C)C = 5.67 µM (active)
COc1ccc(-c2cc3nc4ccccc4n3c(N)c2C#N)cc1 = > 150 µM (not active)
O=C(NNC1=C(C(=O)C(F)(F)F)CCC1)c1cccc(Cl)c1 = > 150 µM (not active)

// next entry
Data request: Return value of EC50 for input O=C(NC(=S)Nc1ccc(-c2nc3ncccc3o2)cc1)c1ccccc1F , no commentary.
Data returned: > 150 µM (not active)

Recorded values, source ChEMBL document CHEMBL1201862.
